Source: patent US20230192686A1

biological target: recombinant DYRK1A kinase (Homo sapiens, UniProt Q13627); assay: DYRK1A kinase assay (Ser/Thr 18 peptide Z-lyte FRET); details: DYRK1A kinase activity; 15 μM ATP, 4 μM Ser/Thr peptide 18, one hour at room temperature
Below is a list of entries, each paired with its recorded EC50 value.
All answers are understood in nM, so give the number only.

compound | result-units | measurement
Cc1nc2c(F)cc(-c3c[nH]c4ncc(C(=O)N5CC6CCC(C5)N6C)cc34)cc2n1C(C)C [Compound 2044] | nM | 3
CCOc1ccc2c(-c3ccc4ncccc4c3)c[nH]c2n1 [Compound 1782] | nM | 15

stdin: Return the recorded EC50 value; entry: Cc1nc2c(F)cc(-c3c[nH]c4ncc(C(=O)N5CCN(C)CC5)cc34)cc2n1C(C)C [Compound 493]
stdout: 7

stdin: Return the recorded EC50 value; entry: COc1ncnc2ccc(-c3c[nH]c4nc(C5CC5)ccc34)cc12 [Compound 1533]
stdout: 229

stdin: Return the recorded EC50 value; entry: CN1CCC(Nc2ncnc3ccc(-c4c[nH]c5ncc(-c6cnn(C)c6)cc45)cc23)CC1 [Compound 1074]
stdout: 19

stdin: Return the recorded EC50 value; entry: CN1CCC2(CC1)CC(=O)c1ccc(-c3c[nH]c4nc(NC(=O)c5ccncc5)ccc34)cc12 [Compound 1899]
stdout: 14

stdin: Return the recorded EC50 value; entry: Cn1nnc2ccc(-c3c[nH]c4nc(C5CC5)ccc34)cc21 [Compound 1507]
stdout: 38

stdin: Return the recorded EC50 value; entry: Cc1nc2ccc(-c3c[nH]c4ncccc34)nc2n1C(C)C [Compound 27]
stdout: 2

* * *

target: recombinant DYRK1A kinase (Homo sapiens, UniProt Q13627); experiment: DYRK1A kinase assay (Ser/Thr 18 peptide Z-lyte FRET); details: DYRK1A kinase activity; 15 μM ATP, 4 μM Ser/Thr peptide 18, one hour at room temperature
Below is a list of entries, each paired with its recorded EC50 value.
All answers are understood in nM, so give the number only.

Consider the worked cases shown below.
sample-smiles | EC50 / nM
Cc1nc2c(F)cc(-c3c[nH]c4ncc(-c5cnn6c5CN(C)CC6)cc34)cc2n1C(C)C | 4
CN1CCC(NC(=O)c2cnn3ccc(-c4c[nH]c5nc(C6CC6)ccc45)cc23)CC1 | 5
CN1CCC(NC(=O)c2cnc3[nH]cc(-c4ccc5ncncc5c4)c3c2)CC1 | 15

stdin: Return the recorded EC50 value; entry: O=C1NCCOc2cc(-c3c[nH]c4nc(C5CC5)ccc34)ccc21
stdout: 28

stdin: Return the recorded EC50 value; entry: O=C(Nc1cccnc1)c1cnn2ccc(-c3c[nH]c4ncccc34)cc12
stdout: 2

stdin: Return the recorded EC50 value; entry: Cc1ccnc(C)c1-c1cnc2[nH]cc(-c3cc(F)c4nc(C)n(C(C)C)c4c3)c2c1
stdout: 7

* * *

Molecular target: recombinant DYRK1A kinase (Homo sapiens, UniProt Q13627)
Assay: DYRK1A kinase assay (Ser/Thr 18 peptide Z-lyte FRET)
Settings: DYRK1A kinase activity; 15 μM ATP, 4 μM Ser/Thr peptide 18, one hour at room temperature
Procedure: Representative compounds were screened using the assay procedure for DYRK1A kinase activity as described below. Each compound was dissolved in DMSO as a 10 mM stock and used to prepare compound source plates. […] The Emission ratio (Em) was calculated as a ratio of the coumarin (C) emission signal (at 445 nm)/Fluorescein (F) emission signal (at 520 nm). The percent phosphorylation was then calculated using the following formula: [1−((Em ratio×F100%)−C100%)/((C0%−C100%)+(Em ratio×(F100%−F0%)))]. […]
Below is a list of entries, each paired with its recorded pEC50 value.
Please treat pEC50 as minus the base-10 logarithm of the molar concentration.

stdin: Return the recorded pEC50 value; entry: Cc1cn2c(n1)CN(C(=O)c1cnc3[nH]cc(-c4cc(F)c5nc(C)n(C(C)C)c5c4)c3c1)CC2
stdout: 8.52

* * *

molecular target: recombinant DYRK1A kinase (Homo sapiens, UniProt Q13627); assay: DYRK1A kinase assay (Ser/Thr 18 peptide Z-lyte FRET); details: DYRK1A kinase activity; 15 μM ATP, 4 μM Ser/Thr peptide 18, one hour at room temperature
Below is a list of entries, each paired with its recorded EC50 value.
All answers are understood in nM, so give the number only.

compound | EC50, nM
CN1CCC(C(=O)Nc2ccc3c(-c4ccn5ncc(-c6cccnc6)c5c4)c[nH]c3n2)CC1 [Compound 1847] | 1
O=C1CC2(CCNCC2)Oc2cc(-c3c[nH]c4ncccc34)ccc21 [Compound 83] | 29
CN1CCC(N(C)C(=O)c2cnn3ccc(-c4c[nH]c5ncccc45)cc23)CC1 [Compound 46] | 5
CN1C2CCC1CN(C(=O)c1cnc3[nH]cc(-c4ccn5nccc5c4)c3c1)C2 [Compound 2049] | 45
O=C1NCCc2cc(-c3c[nH]c4nc(C5CC5)ccc34)ccc21 [Compound 1526] | 10
CN1CCN(c2ccc(CNc3ncnc4ccc(-c5c[nH]c6ncccc56)cc34)cn2)CC1 [Compound 104] | 11
CN1CC2(C1)CN(C(=O)c1cnn3ccc(-c4c[nH]c5ncccc45)cc13)C2 [Compound 62] | 5

Now turn to the next compound.
stdin: Return the recorded EC50 value; entry: c1cn2nc(-c3c[nH]c4nc(C5CC5)ccc34)ccc2n1 [Compound 1508]
stdout: 29

* * *

target: recombinant DYRK1A kinase (Homo sapiens, UniProt Q13627); experiment: DYRK1A kinase assay (Ser/Thr 18 peptide Z-lyte FRET); settings: DYRK1A kinase activity; 15 μM ATP, 4 μM Ser/Thr peptide 18, one hour at room temperature
measurement-label: log10 of EC50 (log10 of the value in nM)
In our notation, the value equals log10 of EC50 in nM.

Consider the worked cases shown below.
sample-smiles | measurement
CN1CCN(c2cc(-c3c[nH]c4nc(NC(=O)c5ccncc5)ccc34)ccn2)CC1 | 1.71
COCCN1CCC(NC(=O)c2cnn3ccc(-c4c[nH]c5ncccc45)cc23)CC1 | 0.00

Now turn to the next compound.
stdin: Return the recorded log10 of EC50 value; entry: Clc1ccc2c(-c3ccc4ncccc4c3)c[nH]c2n1
stdout: 1.04

* * *

target: recombinant DYRK1A kinase (Homo sapiens, UniProt Q13627); test: DYRK1A kinase assay (Ser/Thr 18 peptide Z-lyte FRET); settings: DYRK1A kinase activity; 15 μM ATP, 4 μM Ser/Thr peptide 18, one hour at room temperature
measurement-label: EC50 (nM)
All answers are understood in nM, so give the number only.

sample-smiles | EC50 [nM]
c1nc2ccc(-c3c[nH]c4nc(C5CC5)ccc34)cn2n1 | 100
CN1CCN(c2ncnc3ccc(-c4c[nH]c5ncc(-c6cccnc6)cc45)cc23)CC1 | 3
O=C(N[C@@H]1CCNC[C@H]1F)c1cnn2ccc(-c3c[nH]c4ncccc34)cc12 | 1
CC(F)(F)CN1CCC(NC(=O)c2cnn3ccc(-c4c[nH]c5ncccc45)cc23)CC1 | 1
Cc1nc2c(F)cc(-c3c[nH]c4nc(CO)ccc34)cc2n1C(C)C | 8

stdin: Return the recorded EC50 value; entry: c1cnc2[nH]cc(-c3ccc4nccn4c3)c2c1
stdout: 3

stdin: Return the recorded EC50 value; entry: CN1CCN(C(=O)c2cnn3ccc(-c4c[nH]c5ncc(C#N)cc45)cc23)CC1
stdout: 47

stdin: Return the recorded EC50 value; entry: COc1cnc2[nH]cc(-c3ccn4ncc(C(=O)N5CCN(C)CC5)c4c3)c2c1
stdout: 32

stdin: Return the recorded EC50 value; entry: Cc1nc2c(F)cc(-c3c[nH]c4nc(C5CCC5)ccc34)cc2n1C(C)C
stdout: 43

stdin: Return the recorded EC50 value; entry: O=C(NCC(F)F)c1cnn2ccc(-c3c[nH]c4nc(C5CCC5)ccc34)cc12
stdout: 8

stdin: Return the recorded EC50 value; entry: C[C@@H](NC(=O)c1cnn2ccc(-c3c[nH]c4nc(C5CC5)ccc34)cc12)C(F)(F)F
stdout: 91

stdin: Return the recorded EC50 value; entry: Cc1nc2c(F)cc(-c3c[nH]c4ncc(CN5CCN(C)CC5)cc34)cc2n1C(C)C
stdout: 13

* * *

molecular target: recombinant DYRK1A kinase (Homo sapiens, UniProt Q13627); assay: DYRK1A kinase assay (Ser/Thr 18 peptide Z-lyte FRET); details: DYRK1A kinase activity; 15 μM ATP, 4 μM Ser/Thr peptide 18, one hour at room temperature
measurement-label: EC50 (nM)
All answers are understood in nM, so give the number only.

Consider the worked cases shown below.
sample-smiles | assayed-target | result-units | EC50
Cc1nc2c(F)cc(-c3c[nH]c4ncc(NC(=O)c5ccnc(N6CCNCC6)c5)cc34)cc2n1C(C)C | recombinant DYRK1A kinase (Homo sapiens, UniProt Q13627) | nM | 2
OCc1cnc2ccc(-c3c[nH]c4ncccc34)nn12 | recombinant DYRK1A kinase (Homo sapiens, UniProt Q13627) | nM | 2
CN1CCC(C(=O)Nc2ccc3c(-c4ccc5ncccc5c4)c[nH]c3n2)CC1 | recombinant DYRK1A kinase (Homo sapiens, UniProt Q13627) | nM | 1
O=C1NCCOc2cc(-c3c[nH]c4ncccc34)ccc21 | recombinant DYRK1A kinase (Homo sapiens, UniProt Q13627) | nM | 3
CN1CCn2ncc(-c3cnc4[nH]cc(-c5ccc6ncncc6c5)c4c3)c2C1 | recombinant DYRK1A kinase (Homo sapiens, UniProt Q13627) | nM | 10

stdin: Return the recorded EC50 value; entry: CN1CCC(NC(=O)c2cnn3ccc(-c4c[nH]c5ncccc45)cc23)CC1
stdout: 1

stdin: Return the recorded EC50 value; entry: O=C1NCCc2sc(-c3c[nH]c4ncccc34)cc21
stdout: 12

stdin: Return the recorded EC50 value; entry: O=C1NCCn2cc(-c3c[nH]c4ncccc34)cc21
stdout: 14

stdin: Return the recorded EC50 value; entry: CN1CCC(NC(=O)c2ccnc3ccc(-c4c[nH]c5ncccc45)cc23)CC1
stdout: 1
